The compounds listed here are annotated with their Emax.
target: F508delCFTR (Homo sapiens, UniProt P13569, DEL508-508); construct: expressed in transfected cells; host or cells: CFBE41o- human lung-derived epithelial cells (CFBE4lo-F508delCFTR-HRP), doxycycline-inducible; assay: Cell Surface Expression-Horse Radish Peroxidase (CSE-HRP) Assay; type: cell-based; conditions: without co-corrector; maximum at any tested concentration, normalized to on-plate positive control; read-out: Maximum % activity (without co-corrector);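 for Maximum % activity (without co-corrector): percent of the 2 µM on-plate positive control corrector response above DMSO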
Sequence (P13569 with tags, fused parts or gaps DEL508-508): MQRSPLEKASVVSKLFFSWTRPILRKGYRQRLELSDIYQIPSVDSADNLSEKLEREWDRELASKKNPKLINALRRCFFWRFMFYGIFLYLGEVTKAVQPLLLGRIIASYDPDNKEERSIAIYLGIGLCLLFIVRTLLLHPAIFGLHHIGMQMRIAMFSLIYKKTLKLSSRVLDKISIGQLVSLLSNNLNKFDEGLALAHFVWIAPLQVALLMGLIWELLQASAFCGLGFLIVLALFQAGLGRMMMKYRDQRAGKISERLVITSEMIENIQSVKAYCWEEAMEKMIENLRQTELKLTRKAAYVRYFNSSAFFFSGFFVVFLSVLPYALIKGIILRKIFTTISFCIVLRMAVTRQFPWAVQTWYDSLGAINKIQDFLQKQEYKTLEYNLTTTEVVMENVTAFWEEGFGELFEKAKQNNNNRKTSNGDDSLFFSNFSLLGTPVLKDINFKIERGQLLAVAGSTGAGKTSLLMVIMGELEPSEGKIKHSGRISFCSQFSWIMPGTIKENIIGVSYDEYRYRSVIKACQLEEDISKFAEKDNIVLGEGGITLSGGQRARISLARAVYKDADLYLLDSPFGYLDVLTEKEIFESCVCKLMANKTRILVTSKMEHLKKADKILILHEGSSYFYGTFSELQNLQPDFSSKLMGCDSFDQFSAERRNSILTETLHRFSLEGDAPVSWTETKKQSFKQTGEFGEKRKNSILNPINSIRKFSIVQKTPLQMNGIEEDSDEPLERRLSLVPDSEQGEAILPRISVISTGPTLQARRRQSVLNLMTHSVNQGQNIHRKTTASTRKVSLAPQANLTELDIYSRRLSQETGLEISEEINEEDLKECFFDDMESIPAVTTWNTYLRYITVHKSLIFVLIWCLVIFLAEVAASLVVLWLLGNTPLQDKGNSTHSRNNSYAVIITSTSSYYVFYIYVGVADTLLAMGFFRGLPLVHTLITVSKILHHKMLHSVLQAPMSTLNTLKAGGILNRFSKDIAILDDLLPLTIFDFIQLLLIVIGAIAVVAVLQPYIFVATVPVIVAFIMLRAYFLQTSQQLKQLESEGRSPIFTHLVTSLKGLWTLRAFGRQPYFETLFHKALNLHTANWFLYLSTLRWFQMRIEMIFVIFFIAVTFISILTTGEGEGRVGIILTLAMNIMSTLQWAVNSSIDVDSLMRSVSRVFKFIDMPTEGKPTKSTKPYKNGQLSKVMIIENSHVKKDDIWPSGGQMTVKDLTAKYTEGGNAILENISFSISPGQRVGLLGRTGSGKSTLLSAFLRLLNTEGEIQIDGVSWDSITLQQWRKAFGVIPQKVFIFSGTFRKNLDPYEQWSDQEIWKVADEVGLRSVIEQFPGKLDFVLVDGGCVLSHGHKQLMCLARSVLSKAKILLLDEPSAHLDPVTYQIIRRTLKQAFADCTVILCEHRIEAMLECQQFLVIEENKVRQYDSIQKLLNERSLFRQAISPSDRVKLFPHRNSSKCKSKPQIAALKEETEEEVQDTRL
REPORTED_ENDPOINT: Emax

compound=COc1ccc(CN(C)C)cc1CN[C@H]1[C@H](C(C)(C)C)[C@@H](C(=O)O)N(C(=O)C2CCCCC2)[C@H]1c1ccccc1 reported_endpoint=Emax assay_result="< 100%"
compound="COc1ccc(C(F)(F)F)cc1CN[C@H]1[C@H](C(C)(C)C)[C@@H](C(=O)O)N(C(=O)[C@H]2OCC[C@H]2C(C)C)[C@H]1c1ccccc1 (relative stereo)" reported_endpoint=Emax assay_result="> 200%"
compound="COc1cccc([C@@H]2[C@H](NCc3ccccc3OC(F)F)[C@@H](C(C)(C)C)[C@H](C(=O)O)N2C(=O)C2CCCCC2)n1 (racemic)" reported_endpoint=Emax assay_result="< 100%"
compound=COc1ccc(C(F)(F)F)cc1CN[C@H]1[C@H](C(C)(C)C)[C@@H](C(=O)O)N(C(=O)OC(C)C)[C@H]1c1cccnc1OC(C)C reported_endpoint=Emax assay_result="> 200%"
compound=COc1cnc(C2CCC2)cc1CN[C@H]1[C@H](C(C)(C)C)[C@@H](C(=O)O)N(C(=O)C2CCCCC2)[C@H]1c1ccccc1 reported_endpoint=Emax assay_result="< 100%"
compound="COc1cc(C(F)(F)F)cc(N[C@@H]2[C@@H](C(C)(C)OC)[C@H](C(=O)O)N(C(=O)C3CCCCC3)[C@@H]2c2ccccc2)n1 (racemic)" reported_endpoint=Emax assay_result="< 100%"

* * *

target: F508delCFTR (Homo sapiens, UniProt P13569, DEL508-508); construct: expressed in transfected cells; host or cells: CFBE41o- human lung-derived epithelial cells (CFBE4lo-F508delCFTR-HRP), doxycycline-inducible; assay: Cell Surface Expression-Horse Radish Peroxidase (CSE-HRP) Assay; assay type: cell-based; details: with co-corrector (2 μM of 3-[(2R,4R)-4-({[1-(2,2-difluoro-1,3-benzodioxol-5-yl)cyclopropyl]carbonyl}amino)-7-methoxy-3,4-dihydro-2H-chromen-2-yl]benzoic acid); read-out: EC50 (with co-corrector)
The compounds listed here are annotated with their EC50.
REPORTED_ENDPOINT: EC50

compound="COc1cccc(CN[C@@H]2[C@@H](C(C)(C)C)[C@H](C(=O)O)N(C(=O)C3CCCCC3)[C@@H]2c2ccccc2)c1 (racemic) [III-14]" reported_endpoint=EC50 assay_result="1000 to 10000 nM"
compound="COc1cc(C(F)(F)F)ccc1CN[C@H]1[C@H](C(C)(C)C)[C@@H](C(=O)O)N(C(=O)C2CCCCC2)[C@H]1c1cccnc1OC [Example I-39]" reported_endpoint=EC50 assay_result="< 1000 nM"
compound="COc1ncc(C(F)(F)F)cc1CN[C@H]1[C@H](C(C)(C)C)[C@@H](C(=O)O)N(C(=O)[C@@H]2CCCO2)[C@H]1c1ccccc1C(C)C [Example 95]" reported_endpoint=EC50 assay_result="< 1000 nM"

* * *

target: F508delCFTR (Homo sapiens, UniProt P13569, DEL508-508); construct: expressed in transfected cells; host or cells: CFBE41o- human lung-derived epithelial cells (CFBE4lo-F508delCFTR-HRP), doxycycline-inducible; experiment: Cell Surface Expression-Horse Radish Peroxidase (CSE-HRP) Assay; type: cell-based; details: test compound without co-corrector; maximum at any tested concentration, normalized to on-plate positive control; read-out: Maximum % activity (without co-corrector);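 for Maximum % activity (without co-corrector): percent of the 2 µM on-plate positive control corrector response above DMSO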
REPORTED_ENDPOINT: Emax

compound=CC(C)(C)[C@H]1[C@H](Nc2ncccc2OCc2ccccc2)[C@H](c2ccccc2)N(C(=O)C2CCCCC2)[C@@H]1C(=O)O assay_result="< 100%"
compound=COc1ccc(C(C)(C)C)cc1CN[C@H]1[C@H](C(C)(C)C)[C@@H](C(=O)O)N(C(=O)c2cnn(-c3ccc(F)cc3F)c2C)[C@H]1c1ccccc1 assay_result="> 200%"
compound="CC(C)(C)[C@@H]1[C@@H](NCc2cc(C(F)(F)F)ccc2OCCCF)[C@@H](c2ccccc2)N(C(=O)C2CCCCC2)[C@H]1C(=O)O (racemic)" assay_result="< 100%"
compound=CC(C)(C)[C@H]1[C@H](NCc2ccc(F)c(C#N)c2)[C@H](c2ccccc2)N(C(=O)C2CCCCC2)[C@@H]1C(=O)O assay_result="< 100%"
compound="CC(C)OC(=O)N1[C@H](C(=O)O)[C@@H](C(C)(C)C)[C@H](NCC2CCCC(C(F)(F)F)C2)[C@@H]1c1ccccc1 (stereo partly drawn)" assay_result="< 100%"
compound=COc1ncc(-c2ccc(C)cc2)cc1CN[C@H]1[C@H](C(C)(C)C)[C@@H](C(=O)O)N(C(=O)C2CCCCC2)[C@H]1c1ccccc1 assay_result="100 to 200%"

* * *

The molecules listed here are annotated with their EC50.
biological target: F508delCFTR (Homo sapiens, UniProt P13569, DEL508-508); construct: expressed in transfected cells; host or cells: CFBE41o- human lung-derived epithelial cells (CFBE4lo-F508delCFTR-HRP), doxycycline-inducible; assay: Cell Surface Expression-Horse Radish Peroxidase (CSE-HRP) Assay; type: cell-based; settings: CSE-HRP; with co-corrector (2 μM of 3-[(2R,4R)-4-({[1-(2,2-difluoro-1,3-benzodioxol-5-yl)cyclopropyl]carbonyl}amino)-7-methoxy-3,4-dihydro-2H-chromen-2-yl]benzoic acid); read-out: EC50 (with co-corrector)
REPORTED_ENDPOINT: EC50

molecule=COc1cc(C(F)(F)F)ccc1CN[C@H]1[C@H](C(C)(C)C)[C@@H](C(=O)O)N(C(=O)OCC(C)C)[C@H]1c1ccccc1 assay_result="< 1000 nM"
molecule="COc1cc(C(F)(F)F)ccc1CN[C@@H]1[C@@H](C(C)(C)C)[C@H](C(=O)O)N(C(=O)[C@@H]2CCCCO2)[C@@H]1c1ccccc1 (racemic) [II-49]" assay_result="1000 to 10000 nM"
molecule=COc1ccc(C(C)(C)C)cc1CN[C@H]1[C@H](C(C)(C)C)[C@@H](C(=O)O)N(C(=O)C2CCC2)[C@H]1c1ccccc1 assay_result="1000 to 10000 nM"
molecule=COc1ccc(C(C)(C)C)cc1CN[C@H]1[C@H](C(C)(C)C)[C@@H](C(=O)O)N(C(=O)c2ccc3c(c2)OCCCO3)[C@H]1c1ccccc1 assay_result="1000 to 10000 nM"
molecule=CC(C)c1ccccc1[C@H]1[C@@H](NCc2cccc3c2OC(C)(C)C3)[C@H](C(C)(C)C)[C@@H](C(=O)O)N1C(=O)[C@@H]1CCCCO1 assay_result="< 1000 nM"
molecule=COc1ccc(C(C)(C)C)cc1CN[C@H]1[C@H](C(C)(C)C)[C@@H](C(=O)O)N(C(=O)c2c(C)nn(-c3ccccc3)c2C)[C@H]1c1ccccc1 assay_result="1000 to 10000 nM"

* * *

target: F508delCFTR (Homo sapiens, UniProt P13569, DEL508-508); construct: expressed in transfected cells; host or cells: CFBE41o- human lung-derived epithelial cells (CFBE4lo-F508delCFTR-HRP), doxycycline-inducible; assay: Cell Surface Expression-Horse Radish Peroxidase (CSE-HRP) Assay; format: cell-based; conditions: test compound without co-corrector; maximum at any tested concentration, normalized to on-plate positive control; read-out: Maximum % activity (without co-corrector);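 for Maximum % activity (without co-corrector): percent of the 2 µM on-plate positive control corrector response above DMSO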
The molecules listed here are annotated with their Emax.
REPORTED_ENDPOINT: Emax

molecule="Cc1cc(C(F)(F)F)cc(N[C@@H]2[C@@H](C(C)(C)C)[C@H](C(=O)O)N(C(=O)C3CCCCC3)[C@@H]2c2ccccc2)[n+]1[O-] (racemic)" reported_endpoint=Emax assay_result="< 100%"
molecule=COc1cnc(-c2ccccc2F)cc1CN[C@H]1[C@H](C(C)(C)C)[C@@H](C(=O)O)N(C(=O)C2CCCCC2)[C@H]1c1ccccc1 reported_endpoint=Emax assay_result="100 to 200%"
molecule="COc1ncc(C2CCC2)cc1CN[C@H]1[C@H](C(C)(C)C)[C@@H](C(=O)O)N(C(=O)C2CCCCO2)[C@H]1c1cccnc1N(C)C (stereo partly drawn)" reported_endpoint=Emax assay_result="> 200%"
molecule="COc1ccc(C(C)(C)C)cc1CN[C@H]1[C@H](C(C)(C)C)[C@@H](C(=O)O)N(C(=O)C2CCO2)[C@H]1c1ccccc1 (stereo partly drawn)" reported_endpoint=Emax assay_result="> 200%"
molecule=COc1ccc(C(C)(C)C)cc1CN[C@H]1[C@H](C(C)(C)C)[C@@H](C(=O)O)N(C(=O)c2c(C)nn3c2CCCC3)[C@H]1c1ccccc1 reported_endpoint=Emax assay_result="100 to 200%"
molecule="COc1ccc(C(C)(C)C)cc1CN[C@H]1[C@H](C(C)(C)C)[C@@H](C(=O)O)N(C(=O)C(C)C2CCCCO2)[C@H]1c1ccccc1 (stereo partly drawn)" reported_endpoint=Emax assay_result="> 200%"
